The values you see were collected from PubChem BioAssay (NCI).

- Test system: PC-3 prostate
- method-description: NCI-60 one-dose screen, 48 h (100 = growth as untreated, 0 = no growth, -100 = all killed)
- condition-set: 10 µM unless noted
This is part of a sample that, as a whole, favours compounds with a hit. Of some 83,000 tested, about 20% had one in any assay.
growth for assorted compounds
Express it in %; write the number only.

// solved cases for growth follow
>>> endpoint_value("COc1ccc(-n2nc(C(=O)Nc3ccc(F)cc3)nc2-c2cc(OC)c(OC)c(OC)c2)cc1")
79.2
>>> endpoint_value("C#CCO[C@H]1CC[C@H](OCC#C)[C@@H]2[C@H]1[C@H]1C[C@@H]3[C@@]4(C)CCC[C@@](C)(C(=O)OC)[C@@H]4CC[C@@]23C=C1C(C)C")
44.8
>>> endpoint_value("C[N+](C)(C)CC(=O)N/N=C\\c1ccco1")
95.8

The compound listed as COc1ccc(/C=C/c2nc3ccccc3c(=O)n2-c2ccc(C#Cc3ccc(C(C)(C)C)cc3)cc2C)c(OC)c1 has a reported growth of 53

The compound listed as CCSCC1CC(O)(c2ccccc2)C(c2ccccc2)C(c2ccc(F)cc2)O1 (centres undefined) has a reported growth of -21.1

The compound listed as O=C(Nc1ccc(Cl)cc1)c1cc(-c2ccc(Cl)cc2)c2sc(=O)[nH]c2n1 has a reported growth of -13.5

The compound listed as O=C(N/N=C/c1ccccc1O)c1ccncc1 has a reported growth of 69.5

The compound listed as Nc1ncnc2c1N=C(c1ccc3c(c1)OCO3)CC(c1ccc(Cl)cc1)N2 (centres undefined) has a reported growth of 62.6

The compound listed as CC(C)CCSc1nc(-c2ccc(F)cc2)c(C#N)c(N2CCN(C)CC2)n1 has a reported growth of 65

###

- Tested on: SN12C renal
- method-description: NCI-60 one-dose screen, 48 h (100 = growth as untreated, 0 = no growth, -100 = all killed)
- condition-set: 10 µM unless noted
Compounds without any hit were thinned out: in the full panel of roughly 83,000, 20% have a hit. Active and inactive are the calls of the source. The calls were made as follows: active = growth percent below 10; inactive = the rest.
growth for assorted compounds

// solved cases for growth follow
>>> endpoint_value("COc1cc(C)c(Cl)cc1C1=NN(c2ccc(S(N)(=O)=O)cc2)C(/C=C/c2ccccc2)C1 (centres undefined)")
"20.6% (inactive)"
>>> endpoint_value("CN(C)c1nc(-c2cccs2)n2nc(-c3ccc(Cl)cc3)cc2n1")
"44.9% (inactive)"
>>> endpoint_value("C=C(COC(C)=O)[C@H]1CC/C(C)=C/CC/C(C)=C/CC[C@@]2(C)O[C@H]2C1")
"106% (inactive)"
>>> endpoint_value("COc1cc(/C=C/c2cc(/C=C/c3ccc(O)c(OC)c3)n(C(=O)Nc3ccc(F)c(Cl)c3)n2)ccc1O")
"2.06% (active)"
>>> endpoint_value("COc1ccc(C(=O)OC2C(OC3C(O)COC(O[C@H]4C[C@H]5[C@@H]6CC=C7C[C@@H](O)CC[C@]7(C)[C@H]6CC[C@]5(C)[C@H]4[C@H](C)C(=O)CCC(C)C)C3OC(N)=O)OCC(O)C2O)cc1 (some centres undefined)")
"44.7% (inactive)"

The compound listed as CCN(CC)CC(=O)Nc1c(C)ccc(N)c1C has a reported growth of 99.4% (inactive)

The compound listed as CCC1=CC2CN(C1)Cc1c([nH]c3ccccc13)[C@@](C(=O)OC)(c1cc3c(cc1OC)N(C)[C@H]1[C@@](O)(C(=O)OC)[C@H](OC(C)=O)[C@]4(CC)C=CCN5CC[C@]31[C@@H]54)C2 (some centres undefined) has a reported growth of 36.9% (inactive)

The compound listed as CCCCCCCC/C=C\CCCCCCCC(=O)OCCCCCC has a reported growth of 111% (inactive)

The compound listed as CN(C)N1C(=O)c2c(Cl)c(Cl)c(Cl)c(Cl)c2C1=O has a reported growth of 103% (inactive)

The compound listed as CN1C(=O)N(C)C2C1NN=c1s/c(=C\c3ccsc3)c(=O)n12 (centres undefined) has a reported growth of 58.8% (inactive)

The compound listed as Clc1nnc2c3ccccc3ccn12 has a reported growth of 109% (inactive)
